- System: NCI-H510 multicellular tumor spheroid growth, % test/control
- Experiment Summary: Anticancer human tumor NCI-H510 cell line growth inhibition [Asc];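 note: spheroids exposed to agents for 7 days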;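 for viability, T/C: 100% = DMSO vehicle control wells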
- Study Conditions: second compound 1 µM; first compound 0.1 µM; stronger effect = lower value
viability, T/C under 90% gets satisfied, anything at or over 90% gets not satisfied.

q: Does the reported viability, T/C of COc1c(OCCCN2CCOCC2)ccc2c3n(c(=NC(=O)c4cnc(N)nc4)nc12)CCN3 + CNC(C)C(=O)NC1CN(S(=O)(=O)c2cccc(S(=O)(=O)N3CCC4CCC(C(=O)NC(c5ccccc5)c5ccccc5)N4C(=O)C(NC(=O)C(C)NC)C3)c2)CCC2CCC(C(=O)NC(c3ccccc3)c3ccccc3)N2C1=O stay below 90%?
a: not satisfied

q: Does the reported viability, T/C of C=C(F)C(=O)N1CCN(c2nc(OCC3CCCN3C)nc3c2CCN(c2cccc4cccc(Cl)c24)C3)CC1CC#N (stereo not drawn) + CNC(C)C(=O)NC1CN(S(=O)(=O)c2cccc(S(=O)(=O)N3CCC4CCC(C(=O)NC(c5ccccc5)c5ccccc5)N4C(=O)C(NC(=O)C(C)NC)C3)c2)CCC2CCC(C(=O)NC(c3ccccc3)c3ccccc3)N2C1=O stay below 90%?
a: not satisfied

q: Does the reported viability, T/C of NC1CCC(NC2CC2c2ccccc2)CC1 (stereo not drawn) + Cc1c(S(C)(=O)=O)c(-c2cc(F)cc(N3CCN(c4ccc(NS(=O)(=O)c5ccc(NC(CCN6CCC(C(=O)OCCCP(=O)(O)O)CC6)CSc6ccccc6)c(S(=O)(=O)C(F)(F)F)c5)cc4)CC3)c2)c(-c2ccc(Cl)cc2)n1C(C)C stay below 90%?
a: satisfied

q: Does the reported viability, T/C of C#Cc1c(F)ccc2cc(O)cc(-c3ncc4c(N5CC6CCC(C5)N6)nc(OCC56CCCN5CC(F)C6)nc4c3F)c12 (stereo not drawn) + Cc1c(S(C)(=O)=O)c(-c2cc(F)cc(N3CCN(c4ccc(NS(=O)(=O)c5ccc(NC(CCN6CCC(C(=O)OCCCP(=O)(O)O)CC6)CSc6ccccc6)c(S(=O)(=O)C(F)(F)F)c5)cc4)CC3)c2)c(-c2ccc(Cl)cc2)n1C(C)C stay below 90%?
a: not satisfied

q: Does the reported viability, T/C of CCN1CCN(Cc2ccc(Nc3ncc(F)c(-c4cc(F)c5nc(C)n(C(C)C)c5c4)n3)nc2)CC1 + Cc1c(S(C)(=O)=O)c(-c2cc(F)cc(N3CCN(c4ccc(NS(=O)(=O)c5ccc(NC(CCN6CCC(C(=O)OCCCP(=O)(O)O)CC6)CSc6ccccc6)c(S(=O)(=O)C(F)(F)F)c5)cc4)CC3)c2)c(-c2ccc(Cl)cc2)n1C(C)C stay below 90%?
a: satisfied

q: Does the reported viability, T/C of C#Cc1c(F)ccc2cc(O)cc(-c3ncc4c(N5CC6CCC(C5)N6)nc(OCC56CCCN5CC(F)C6)nc4c3F)c12 (stereo not drawn) + CNC(C)C(=O)NC1CN(S(=O)(=O)c2cccc(S(=O)(=O)N3CCC4CCC(C(=O)NC(c5ccccc5)c5ccccc5)N4C(=O)C(NC(=O)C(C)NC)C3)c2)CCC2CCC(C(=O)NC(c3ccccc3)c3ccccc3)N2C1=O stay below 90%?
a: not satisfied

* * *

Record form. Attribute: viability, T/C. Fill in for each entry.
- Test system: NCI-H510 multicellular tumor spheroid growth, % test/control
- Experiment Summary: Anticancer human tumor NCI-H510 cell line growth inhibition [Asc];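 note: spheroids exposed to agents for 7 days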;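 for viability, T/C: 100% = DMSO vehicle control wells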
- Study Conditions: second compound 0.949 µM; first compound 0.316 µM; stronger effect = lower value
The response must be a number in % with no trailing unit.

In plain terms, COc1c(OCCCN2CCOCC2)ccc2c3n(c(=NC(=O)c4cnc(N)nc4)nc12)CCN3 + CCN1C(C(=O)NC23CCC(C(=O)O)(CC2)CC3)C(c2cccc(Cl)c2F)C2(C(=O)Nc3cc(Cl)ccc32)C12CCCCC2 has a documented viability, T/C of 62

In plain terms, CCN1CCN(Cc2ccc(Nc3ncc(F)c(-c4cc(F)c5nc(C)n(C(C)C)c5c4)n3)nc2)CC1 + CCN1C(C(=O)NC23CCC(C(=O)O)(CC2)CC3)C(c2cccc(Cl)c2F)C2(C(=O)Nc3cc(Cl)ccc32)C12CCCCC2 has a documented viability, T/C of 107

In plain terms, C=CC(=O)N1CCN(c2nc(=O)n(-c3c(C)ccnc3C(C)C)c3nc(-c4c(O)cccc4F)c(F)cc23)C(C)C1 (centres undefined) + CCN1C(C(=O)NC23CCC(C(=O)O)(CC2)CC3)C(c2cccc(Cl)c2F)C2(C(=O)Nc3cc(Cl)ccc32)C12CCCCC2 has a documented viability, T/C of 109

In plain terms, C#Cc1c(F)ccc2cc(O)cc(-c3ncc4c(N5CC6CCC(C5)N6)nc(OCC56CCCN5CC(F)C6)nc4c3F)c12 (centres undefined) + CCN1C(C(=O)NC23CCC(C(=O)O)(CC2)CC3)C(c2cccc(Cl)c2F)C2(C(=O)Nc3cc(Cl)ccc32)C12CCCCC2 has a documented viability, T/C of 98

* * *

- System: NCI-H510 multicellular tumor spheroid growth, % test/control
- Experiment Summary: Anticancer human tumor NCI-H510 cell line growth inhibition [Asc];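 note: spheroids exposed to agents for 7 days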
- Study Conditions: curve of first compound; second compound 1 µM
Record form. Attribute: IC50. Fill in for each entry.

With NCI-H510 multicellular tumor spheroid growth, % test/control as the test system, C=CC(=O)N1CCN(c2nc(=O)n(-c3c(C)ccnc3C(C)C)c3nc(-c4c(O)cccc4F)c(F)cc23)C(C)C1 (stereo not drawn) + Cc1c(S(C)(=O)=O)c(-c2cc(F)cc(N3CCN(c4ccc(NS(=O)(=O)c5ccc(NC(CCN6CCC(C(=O)OCCCP(=O)(O)O)CC6)CSc6ccccc6)c(S(=O)(=O)C(F)(F)F)c5)cc4)CC3)c2)c(-c2ccc(Cl)cc2)n1C(C)C showed IC50 of > 10 µM

With NCI-H510 multicellular tumor spheroid growth, % test/control as the test system, C#Cc1c(F)ccc2cc(O)cc(-c3ncc4c(N5CC6CCC(C5)N6)nc(OCC56CCCN5CC(F)C6)nc4c3F)c12 (stereo not drawn) + CNC(C)C(=O)NC1CN(S(=O)(=O)c2cccc(S(=O)(=O)N3CCC4CCC(C(=O)NC(c5ccccc5)c5ccccc5)N4C(=O)C(NC(=O)C(C)NC)C3)c2)CCC2CCC(C(=O)NC(c3ccccc3)c3ccccc3)N2C1=O showed IC50 of > 10 µM

With NCI-H510 multicellular tumor spheroid growth, % test/control as the test system, O=C(c1ccc(F)c(F)c1Nc1ccc(I)cc1F)N1CC(O)([C@@H]2CCCCN2)C1 + Cc1c(S(C)(=O)=O)c(-c2cc(F)cc(N3CCN(c4ccc(NS(=O)(=O)c5ccc(NC(CCN6CCC(C(=O)OCCCP(=O)(O)O)CC6)CSc6ccccc6)c(S(=O)(=O)C(F)(F)F)c5)cc4)CC3)c2)c(-c2ccc(Cl)cc2)n1C(C)C showed IC50 of > 1 µM
